Target: Cholinesterase (Equus caballus)
Assay: Inhibition of equine serum BuChE using butyrylthiocholine iodide as substrate preincubated with enzyme for 20 mins followed by substrate addition by Ellman's method
Readout label: pIC50
Note on pIC50: it is the negative log10 of concentration, concentration in mol/L.

O=S1(=O)CC(c2cccc(F)c2)c2c(C3CC3)nn(-c3ccccc3F)c2O1 (stereo not given)
5.40
O=S1(=O)CC(c2cccc(C(F)(F)F)c2)c2c(C3CC3)nn(-c3cccc(F)c3)c2O1 (stereo not given)
5.34
COc1ccc(-c2nn(-c3ccc(Cl)cc3)c3c2C(c2ccc(C#N)cc2)CS(=O)(=O)O3)cc1 (stereo not given)
4.68
Cc1nn(-c2ccccc2F)c2c1C(c1ccc(F)cc1)CS(=O)(=O)O2 (stereo not given)
5.21
Cc1nn(-c2ccccc2)c2c1C(c1cccc(C(F)(F)F)c1)CS(=O)(=O)O2 (stereo not given)
4.78
Cc1cc(C2CS(=O)(=O)Oc3c2c(C)nn3-c2ccccc2F)ccc1Br (stereo not given)
5.42

Next compound, pIC50 to be filled in.
input: Could you tell me which pIC50 is on file for Cc1ccc(C2CS(=O)(=O)Oc3c2c(C)nn3-c2ccccc2)cc1Br (stereo not given) ?
output: 4.74

----------
Target: Cholinesterase (Equus caballus)
Assay: Inhibition of equine serum BuChE at 20 uM using butyrylthiocholine iodide as substrate preincubated with enzyme for 20 mins followed by substrate addition by Ellman's method relative to control
The source made the active and inactive calls. No cut-off for these calls is given here.
Readout label: inhibition

Recorded results for 5 molecules are shown here.
Cc1nn(-c2ccccc2)c2c1CCS(=O)(=O)O2
inactive
Cc1nn(-c2ccccc2)c2c1C(c1ccc([N+](=O)[O-])cc1)CS(=O)(=O)O2 (stereo not given)
inactive
Cc1nn(-c2cccc(F)c2)c2c1C(c1cccc(F)c1)CS(=O)(=O)O2 (stereo not given)
inactive
COc1ccc(-c2nn(-c3ccc(Cl)cc3)c3c2C(c2cccc(OC)c2)CS(=O)(=O)O3)cc1 (stereo not given)
42%
Cc1nn(-c2ccccc2)c2c1C(/C=C/c1ccc(Br)cc1)CS(=O)(=O)O2 (stereo not given)
inactive

input: What measured inhibition is associated with Cc1nn(-c2ccccc2)c2c1C(c1ccc(F)cc1)CS(=O)(=O)O2 (stereo not given) on Cholinesterase (Equus caballus)?
output: 37%

input: inhibition of CC(=O)C1=C(C)OS(=O)(=O)CC1c1ccc([N+](=O)[O-])cc1 (stereo not given) on Cholinesterase (Equus caballus)?
output: inactive

input: Recall the recorded inhibition for Cc1nn(-c2ccccc2)c2c1C(c1cccc([N+](=O)[O-])c1)CS(=O)(=O)O2 (stereo not given) with Cholinesterase (Equus caballus) and state it.
output: 23%

----------
Assay: Octanol-PBS buffer partition coefficient, log P of the compound incubated for 24 hrs measured at pH 7.4 by shake-flask method
Type: physicochemical
Collected logD at 24 h values appear next to each entry.
Answer with a bare number; do not write a unit.

Cc1nn(-c2ccccc2F)c2c1C(c1ccc(F)cc1)CS(=O)(=O)O2 (stereo not given)
2.13
O=S1(=O)CC(c2cccc(C(F)(F)F)c2)c2c(C3CC3)nn(-c3cccc(F)c3)c2O1 (stereo not given)
2.73
Cc1cc(C2CS(=O)(=O)Oc3c2c(C2CC2)nn3-c2ccccc2F)ccc1Br (stereo not given)
2.72
O=S1(=O)CC(c2ccc(F)cc2)c2c(C3CC3)nn(-c3ccccc3Cl)c2O1 (stereo not given)
2.04
COc1ccc(-c2nn(-c3ccccc3F)c3c2CCS(=O)(=O)O3)cc1
2.62
O=S1(=O)CC(c2cccc(F)c2)c2c(C3CC3)nn(-c3ccccc3F)c2O1 (stereo not given)
2.86

input: Need logD at 24 h of COc1cccc(C2CS(=O)(=O)Oc3c2c(C2CC2)nn3-c2ccccc2F)c1 (stereo not given) , thanks.
output: 2.01

input: Item COc1ccc(-c2nn(-c3ccccc3F)c3c2C(c2ccc(Br)c(C)c2)CS(=O)(=O)O3)cc1 (stereo not given) has what recorded logD at 24 h?
output: 2.91

input: Value lookup for logD at 24 h; key = Cc1cc(C2CS(=O)(=O)Oc3c2c(C)nn3-c2ccccc2F)ccc1Br (stereo not given)
output: 2.26

input: Need logD at 24 h, item COc1ccc(-c2nn(-c3ccccc3Cl)c3c2CCS(=O)(=O)O3)cc1
output: 3.04

----------
Experiment: Octanol-PBS buffer partition coefficient, log P of the compound incubated for 24 hrs measured at pH 7.4 by shake-flask method
Format: physicochemical
Readout label: logD at 24 h
Lab note: write the figure by itself, no unit.

# example entries with known answers
Cc1nn(-c2ccccc2F)c2c1CCS(=O)(=O)O2
1.86
O=S1(=O)CCc2c(C3CC3)nn(-c3ccccc3F)c2O1
2.09
Cc1cc(C2CS(=O)(=O)Oc3c2c(C2CC2)nn3-c2ccccc2Cl)ccc1Br (centres undefined)
2.53

input: What value of measured logD at 24 h is listed for O=S1(=O)CC(c2ccc(F)cc2)c2c(C3CC3)nn(-c3ccccc3F)c2O1 (centres undefined) ?
output: 1.76

----------
Some compounds, each annotated with its measured log10 IC50.
Target: Cholinesterase (Equus caballus)
Assay: Inhibition of equine serum BuChE using butyrylthiocholine iodide as substrate preincubated with enzyme for 20 mins followed by substrate addition by Ellman's method
The base-10 logarithm of IC50, taken with IC50 in µM, is what appears here.

O=S1(=O)CC(c2ccc(F)cc2)c2c(C3CC3)nn(-c3ccccc3F)c2O1 (stereo not given)
0.89
O=S1(=O)CCc2c(C3CC3)nn(-c3ccccc3F)c2O1
-0.70
COc1cccc(C2CS(=O)(=O)Oc3c2c(C)nn3-c2ccccc2)c1 (stereo not given)
1.04
COc1ccc(-c2nn(-c3ccccc3Cl)c3c2CCS(=O)(=O)O3)cc1
-0.38

API: the following record is the query input.
input: What does the record list as log10 IC50 for Cc1cc(C2CS(=O)(=O)Oc3c2c(C2CC2)nn3-c2cccc(F)c2)ccc1Br (stereo not given) ?
output: 1.06

----------
Biological target: Cholinesterase (Equus caballus)
Experiment: Inhibition of equine serum BuChE using butyrylthiocholine iodide as substrate preincubated with enzyme for 20 mins followed by substrate addition by Ellman's method
Readout label: pIC50
Please treat pIC50 as minus the base-10 logarithm of the molar concentration.

Recorded pIC50, per entry:
Cc1nn(-c2ccccc2)c2c1C(/C=C/c1cccc(C#N)c1)CS(=O)(=O)O2 (stereo not given)
4.97
Cc1cc(C2CS(=O)(=O)Oc3c2c(C2CC2)nn3-c2ccccc2F)ccc1Br (stereo not given)
5.24

input: Give the measured pIC50 of O=S1(=O)CC(c2ccc(F)cc2)c2c(C3CC3)nn(-c3ccccc3Cl)c2O1 (stereo not given) .
output: 5.22

input: Look up pIC50 for this compound: COc1ccc(-c2nn(-c3ccccc3F)c3c2C(c2ccc(Br)c(C)c2)CS(=O)(=O)O3)cc1 (stereo not given)
output: 5.36

input: So what does the record say about pIC50 for Cc1cccc(/C=C/C2CS(=O)(=O)Oc3c2c(C)nn3-c2ccccc2)c1 (stereo not given) ?
output: 5.00

input: Need pIC50 of COc1cccc(C2CS(=O)(=O)Oc3c2c(C2CC2)nn3-c2ccccc2F)c1 (stereo not given) , thanks.
output: 5.46

input: So what does the record say about pIC50 for COc1ccc(C2CS(=O)(=O)Oc3c2c(C)nn3-c2ccccc2)cc1 (stereo not given) ?
output: 5.03

input: Item under review: Cc1nn(-c2ccccc2)c2c1C(c1cc3ccccc3o1)CS(=O)(=O)O2 (stereo not given) . Reported pIC50?
output: 5.59

input: Quick check: pIC50 of Cc1nn(-c2ccccc2)c2c1C(c1ccsc1)CS(=O)(=O)O2 (stereo not given) ?
output: 4.99

input: Dear colleague, I am looking for the recorded pIC50 of the following compound: COc1ccc(-c2nn(-c3ccc(Cl)cc3)c3c2C(c2ccc(Br)c(C)c2)CS(=O)(=O)O3)cc1 (stereo not given)
output: 4.88

----------
Target: Cholinesterase (Equus caballus) (UniProt P81908)
Sequence (P81908 whole entry): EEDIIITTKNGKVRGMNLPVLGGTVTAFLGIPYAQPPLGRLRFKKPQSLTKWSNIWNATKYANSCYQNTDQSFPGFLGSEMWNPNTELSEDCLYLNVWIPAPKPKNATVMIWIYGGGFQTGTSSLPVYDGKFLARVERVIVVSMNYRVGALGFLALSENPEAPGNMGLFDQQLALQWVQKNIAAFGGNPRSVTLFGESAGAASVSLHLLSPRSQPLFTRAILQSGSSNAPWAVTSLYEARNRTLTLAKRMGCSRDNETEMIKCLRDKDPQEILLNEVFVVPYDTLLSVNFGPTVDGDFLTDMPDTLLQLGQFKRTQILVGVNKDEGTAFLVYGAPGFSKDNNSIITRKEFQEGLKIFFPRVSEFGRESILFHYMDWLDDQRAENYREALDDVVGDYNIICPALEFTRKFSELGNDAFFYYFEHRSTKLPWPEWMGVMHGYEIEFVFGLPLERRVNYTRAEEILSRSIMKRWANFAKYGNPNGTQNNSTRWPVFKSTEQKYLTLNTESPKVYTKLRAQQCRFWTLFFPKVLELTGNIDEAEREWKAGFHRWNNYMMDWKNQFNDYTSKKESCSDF
Assay: Inhibition of equine serum BuChE at 20 uM using butyrylthiocholine iodide as substrate preincubated with enzyme for 20 mins followed by substrate addition by Ellman's method relative to control
Activity calls are given as the source filed them. The calls are words filed in the database; no cut-off is given here.
Readout label: inhibition

COc1ccc(-c2nn(-c3ccccc3Cl)c3c2C(c2ccc(Br)c(C)c2)CS(=O)(=O)O3)cc1 (stereo not given)
35%
COc1ccc(-n2nc(C)c3c2OS(=O)(=O)CC3c2ccc(F)cc2)cc1 (stereo not given)
15%
Cc1nn(-c2ccccc2)c2c1C(c1cc3ccccc3s1)CS(=O)(=O)O2 (stereo not given)
33%
Cc1nn(-c2ccc(Cl)cc2)c2c1C(c1ccc(F)cc1)CS(=O)(=O)O2 (stereo not given)
inactive
COc1ccc(-c2nn(-c3ccccc3F)c3c2C(c2ccc(F)cc2)CS(=O)(=O)O3)cc1 (stereo not given)
inactive
Cc1ccc(-n2nc(C)c3c2OS(=O)(=O)CC3c2ccccc2)cc1C (stereo not given)
inactive
Cc1nn(-c2cccc(Cl)c2)c2c1C(c1cccc(F)c1)CS(=O)(=O)O2 (stereo not given)
inactive
Cc1nn(-c2ccccc2)c2c1C(c1ccc(C#N)cc1)CS(=O)(=O)O2 (stereo not given)
15%

input: Can you look up inhibition on Cholinesterase (Equus caballus) (UniProt P81908) for Cc1nn(-c2cccc(F)c2)c2c1C(c1ccc(F)cc1)CS(=O)(=O)O2 (stereo not given) ?
output: inactive

input: Please provide the recorded inhibition for Cc1nn(-c2ccccc2)c2c1C(/C=C/c1ccc(C(C)(C)C)cc1)CS(=O)(=O)O2 (stereo not given) , tested on Cholinesterase (Equus caballus) (UniProt P81908).
output: inactive

input: Enter reported inhibition observed with Cholinesterase (Equus caballus) (UniProt P81908) for COc1ccccc1C1CS(=O)(=O)Oc2c1c(C)nn2-c1ccccc1 (stereo not given)
output: 31%

input: What reported inhibition corresponds to Cc1nn(-c2ccccc2)c2c1C(c1cccc3c1sc1ccccc13)CS(=O)(=O)O2 (stereo not given) on Cholinesterase (Equus caballus) (UniProt P81908)?
output: inactive

input: Find inhibition (Cholinesterase (Equus caballus) (UniProt P81908)) for the entry CCOC(=O)c1ccc(C2CS(=O)(=O)Oc3c2c(C)nn3-c2ccccc2)cc1 (stereo not given)
output: inactive

input: Form: Entry = COc1cccc(C2CS(=O)(=O)Oc3c2c(C)nn3-c2cccc(Cl)c2)c1 (stereo not given) | System = Cholinesterase (Equus caballus) (UniProt P81908) | inhibition = ____
output: inactive

input: Identify the measured inhibition of Cc1nn(-c2ccccc2)c2c1C(c1ccc3ccccc3c1)CS(=O)(=O)O2 (stereo not given) for Cholinesterase (Equus caballus) (UniProt P81908).
output: inactive

input: Return inhibition measured with Cholinesterase (Equus caballus) (UniProt P81908) given this compound: Cc1nn(-c2ccccc2)c2c1C(c1cccc(C3CS(=O)(=O)Oc4c3c(C)nn4-c3ccccc3)c1)CS(=O)(=O)O2 (stereo not given)
output: inactive

input: Missing value: inhibition, Cholinesterase (Equus caballus) (UniProt P81908), entry Cc1nn(-c2ccccc2)c2c1C(/C=C/c1ccc(C(F)(F)F)cc1)CS(=O)(=O)O2 (stereo not given) . Fill in?
output: inactive

input: Form: Entry = O=C1CCCC2=C1C(c1ccc([N+](=O)[O-])cc1)CS(=O)(=O)O2 (stereo not given) | System = Cholinesterase (Equus caballus) (UniProt P81908) | inhibition = ____
output: 25%

input: Write down the reported inhibition of CC(C)C(=O)C1=C(C(C)C)OS(=O)(=O)CC1c1ccc([N+](=O)[O-])cc1 (stereo not given) , test system: Cholinesterase (Equus caballus) (UniProt P81908).
output: inactive

input: Item: Cc1nn(-c2ccc(Br)cc2)c2c1C(c1ccccc1)CS(=O)(=O)O2 (stereo not given) Test system: Cholinesterase (Equus caballus) (UniProt P81908) Read-out: inhibition Value: ?
output: inactive
